test: Agilent ZORBAX 300 SB-C18, 150 × 1 mm, 3.5 µm; A: water + 0.01% heptafluorobutyric acid; B: acetonitrile + 0.01% heptafluorobutyric acid; gradient (min/%B) 0/0 100/90; settings: stereoisomer not certain
MEASUREMENT KIND: LC retention time (min)

{"columns": ["COMPOUND", "LC retention time / min"],
 "data": [
  ["CCC(C)C(N)C(=O)N1CCCC1C(=O)NC(C(=O)O)C(C)CC (configuration not stated)", 8.56]
]}

a = N=c1oc2ccccc2cc1C(=O)Nc1ccc(Oc2ccccc2)cc1
b = COc1ccc(CN2CCC(N)CC2)cc1OC
Exercise: API: POST /compare with a and b ; response names the item with higher LC retention time. Reply briefly: the label of your chosen item.
Solution: a
(a: 13 min, b: 7.7 min)

a = Cc1cccc(-n2c(C)cc(C=NNC(N)=S)c2C)c1C
b = CCc1nc2ccccc2[nH]1
Exercise: API: POST /compare with a and b ; response names the item with higher LC retention time. Reply briefly: the label of your chosen item.
Solution: a

A = COc1ccc(OC)c2c1C(c1cccc(N)c1)OC1CCCCC21 (configuration not stated)
B = COc1cccc(OCCN)c1
Exercise: Pick one, A or B : lowest reported LC retention time. Reply briefly: the label of your chosen item.
Solution: B

---

assay: Agilent ZORBAX 300 SB-C18, 150 × 1 mm, 3.5 µm; A: water + 0.01% heptafluorobutyric acid; B: acetonitrile + 0.01% heptafluorobutyric acid; gradient (min/%B) 0/0 100/90; settings: stereoisomer not certain
MEASUREMENT KIND: LC retention time (min)

Field: example entries. Status: answers known.
{"columns": ["COMPOUND", "LC retention time / min"],
 "data": [
  ["CNCCN", 6.51],
  ["CCN(CC)CCNC(=O)c1ccccc1NC(=O)Nc1ccccc1", 9.62],
  ["O=Cc1cccc2[nH]ccc12", 9.79],
  ["Oc1ccc2c(c1)C13CCCCC1(O)C(C2O)N(CC1CCC1)CC3 (stereo unspecified)", 8.68]
]}

a = Nc1ccc(N2CCCC2=O)cc1N1CCCC1=O
b = Cc1ccc(NC(=O)COc2ccc(-c3ccccc3)cc2)cc1
Exercise: Pick one, a or b : lowest reported LC retention time. Reply briefly: the label of your chosen item.
Solution: a
(a: 7.63 min, b: 17.1 min)

---

test: Agilent ZORBAX 300 SB-C18, 150 × 1 mm, 3.5 µm; A: water + 0.01% heptafluorobutyric acid; B: acetonitrile + 0.01% heptafluorobutyric acid; gradient (min/%B) 0/0 100/90; conditions: stereoisomer not certain
MEASUREMENT KIND: LC retention time (min)

{"columns": ["COMPOUND", "EXPERIMENTAL VALUE"],
 "data": [
  ["COCCc1ccc(OCC(O)CNC(C)C)cc1 (centres undefined)", 9.27],
  ["CCN(CC)CCCO", 6.01],
  ["CC1CCc2[nH]c3ccccc3c2C1 (centres undefined)", 16.9]
]}

a = Cc1ccc(NC(=S)NN=C2CCN(C(C)C)CC2)cc1
b = CC(=O)NCCC1CCCCN1 (centres undefined)
c = CC(=O)C(=C1NC(C)(C)Cc2cc(C)c(C)cc21)c1ccccc1
d = OCC1CC(O)CN1 (centres undefined)
e = NNC(=O)C(O)C(O)C(=O)NN (centres undefined)
Exercise: Place the items in sequence of falling LC retention time. Dear reader, please state the labels in the requested order.
Solution: c, a, b, d, e
(c: 17.6 min, a: 9.64 min, b: 6.55 min, d: 2.85 min, e: 1.94 min)
